assay remarks: CD69 Whole Blood Assay (CD69 Hu Blood FACS)
Assay type: cell-based, human
stated conditions: Lymphocyte; human whole blood, anti-IgM activated B lymphocytes, FACS; IC70; Table 2 (unit inferred); read-out: CD69 Hu Blood FACS (IC70)
// reported IC70 per item
Your answer is read as µM, so omit the unit and give the number.

Sample records with IC70:
Query: For the compound C[C@H]1CN(C2COC2)CCN1c1ccc(Nc2cc(-c3ccnc(-n4ncc5c6n(cc5c4=O)CCCC6)c3CO)cn(C)c2=O)nc1 , report IC70.
Response: 1.1

Query: Input Cn1cc(-c2ccnc(N3CCn4c(cc5c4CCCC5)C3=O)c2CO)cc(Nc2ccc(N3CCN(C4COC4)CC3(C)C)cn2)c1=O , output reported IC70.
Response: 0.0704

Query: State its IC70: C[C@H]1CN(C2COC2)CCN1c1ccc(Nc2cc(-c3ccnc(-n4ncc5c6c(sc5c4=O)CCCC6)c3CO)cn(C)c2=O)nc1
Response: 0.0435

Query: In one line, give reported IC70 of the entry Cc1cc(Nc2cc(-c3ccnc(N4CCc5c(cc6n5CCCC6)C4=O)c3CO)cn(C)c2=O)nn1C .
Response: 1.2

Query: Provide one value: measured IC70 of Cc1cc(Nc2cc(-c3ccnc(N4CCn5c(cc6c5CC(C)(C)C6)C4=O)c3CO)cn(C)c2=O)n[nH]1
Response: 0.0606

Query: Entry Cn1cc(-c2ccnc(N3CCn4c(cc5c4CC(C)(C)C5)C3=O)c2CO)cc(Nc2ccc(F)cn2)c1=O needs its IC70 filled in; supply it.
Response: 0.423

Query: Please indicate IC70 recorded for CN1CCn2nc(Nc3cc(-c4ccnc(N5CCn6c(cc7c6CC(C)(C)C7)C5=O)c4CO)nn(C)c3=O)cc2C1
Response: 0.14

Query: Dear colleague, please send me the reported IC70 for Cc1nccc(Nc2cc(-c3ccnc(N4CCn5c(cc6c5CC(C)(C)C6)C4=O)c3CO)nn(C)c2=O)n1 when you can.
Response: 0.766

Query: Identify measured IC70 corresponding to Cn1cc(-c2ccnc(-n3ncc4c5c(sc4c3=O)CCCC5)c2CO)cc(Nc2cnccn2)c1=O
Response: 1.2

Query: Tell me IC70 reported for C[C@@H]1COC[C@H](C)N1C(=O)c1ccc(Nc2cc(-c3ccnc(N4CCn5c(cc6c5CC(C)(C)C6)C4=O)c3CO)cn(C)c2=O)nc1
Response: 0.0468

New cases:
Query: Look up IC70 of Cn1cc(Nc2cc(-c3ccnc(N4CCn5c(cc6c5CC(C)(C)C6)C4=O)c3CO)cn(C)c2=O)nn1 and report it.
Response: 0.0691

Query: Return IC70 for the following compound: Cn1cc(-c2ccnc(N3CCn4c(cc5c4CC(C)(C)C5)C3=O)c2CO)cc(Nc2ccc(N3CC(O)C3)cn2)c1=O
Response: 0.0446

Query: Please report the measured IC70 for Cc1cnc(Nc2cc(-c3ccnc(N4CCn5c(cc6c5CC(C)(C)C6)C4=O)c3CO)cn(C)c2=O)o1
Response: 0.577

Query: Specify measured IC70 for CN1CC(c2ccc(Nc3cc(-c4ccnc(N5CCn6c(cc7c6CCCC7)C5=O)c4CO)cn(C)c3=O)nc2)C1 .
Response: 0.153

Query: Note down IC70 recorded for Cc1nccc(Nc2cc(-c3ccnc(N4CCn5c6c(c(F)c5C4=O)CCCC6)c3CO)cn(C)c2=O)n1
Response: 0.62

Query: Answer with reported IC70 of Cn1cc(-c2ccnc(N3CCc4c(c(F)c5n4CCCC5)C3=O)c2CO)cc(Nc2cc3n(n2)CCN(C2COC2)C3)c1=O
Response: 0.131

Query: Give the value of IC70 reported for the following: Cn1cc(-c2ccnc(N3CCn4c(cc5c4CCCC5)C3=O)c2CO)cc(Nc2cn(C3CCN(C4COC4)CC3)cn2)c1=O
Response: 2.8

Query: Provide IC70 value for the following compound: COCc1cc(Nc2cc(-c3ccnc(N4CCn5c(cc6c5CC(C)(C)C6)C4=O)c3CO)cn(C)c2=O)nn1C
Response: 0.0202

Query: Note down IC70 recorded for Cn1nc(-c2ccnc(N3CCn4c5c(c(F)c4C3=O)CCCC5)c2CO)cc(Nc2ccncn2)c1=O
Response: 2.2

Query: Give the value of IC70 reported for the following: Cn1cc(-c2ccnc(N3CCn4c(cc5c4CC(C)(C)C5)C3=O)c2CO)cc(Nc2ccnc(C(C)(C)O)n2)c1=O
Response: 0.653

Query: Complete the entry with IC70 for Cn1cc(-c2ccnc(N3CCn4c(cc5c4CC(C)(C)C5)C3=O)c2CO)cc(Nc2cc(C(C)(C)C)on2)c1=O
Response: 0.276

Query: State its IC70: COCCN1CCN(c2ccc(Nc3cc(-c4ccnc(N5CCn6c(cc7c6CC(C)(C)C7)C5=O)c4CO)cn(C)c3=O)nc2)CC1
Response: 0.0535

Query: Report measured IC70; entry is Cc1nc(Nc2cc(-c3ccnc(N4CCn5c(cc6c5CC(C)(C)C6)C4=O)c3CO)cn(C)c2=O)cn1C
Response: 0.613

Query: Provide only the value of recorded IC70 for COCCN1CCn2nc(Nc3cc(-c4ccnc(N5CCc6c(sc7c6CC(C)(C)C7)C5=O)c4CO)cn(C)c3=O)cc2C1
Response: 0.0546

Query: Using known records, supply IC70 for COC[C@H](C)N1CCn2nc(Nc3cc(-c4ccnc(N5CCn6c(cc7c6CC(C)(C)C7)C5=O)c4CO)cn(C)c3=O)cc2C1 (single isomer, unassigned)
Response: 0.0179

Query: Consider the compound CCN1CCn2nc(Nc3cc(-c4ccnc(N5CCc6c(cc7n6CCCC7)C5=O)c4CO)cn(C)c3=O)cc2C1 and give its recorded IC70.
Response: 0.58

Query: Check the records and state IC70 for CN1CCn2nc(Nc3cc(-c4ccnc(-n5ncc6c7n(cc6c5=O)CCCC7)c4CO)cn(C)c3=O)cc2C1
Response: 7.3
